# experiment-notes: Tmax in mouse at 30 mg/kg, po measured upto 24 hrs by LC-MS/MS method
# Format: ADME, organism-based
# test-settings: in vivo
measure-name: Tmax (min)
Quick reminder: number only, in min, skip the unit.

Query block: Output measured Tmax for this item: `C=CC(=O)N1CC2(CC(n3nc(-c4ccc5c(cnn5C)c4)c(-c4c(Cl)c(C)cc5[nH]ncc45)c3C)C2)C1`
Result block: 30

* * *

# logD values compiled below
# experiment-notes: Lipophilicity, logD of compound at pH 7.4
# Format: physicochemical
# test-settings: buffer
Respond using a number only.

Query block: Output measured logD for this item: `C=CC(=O)N1CC2(CC(n3nc(-c4ccc5c(cnn5CCOC)c4)c(-c4c(Cl)c(C)cc5[nH]ncc45)c3C)C2)C1`
Result block: 4.5

Query block: Output measured logD for this item: `C=CC(=O)N1CC2(CC(n3nc(-c4ccccc4)c(-c4c(Cl)c(C)cc5[nH]ncc45)c3C)C2)C1`
Result block: 4.9

Query block: Output measured logD for this item: `C=CC(=O)N1CC2(CC(n3nc(-c4ccc5nn(CCOC)cc5c4)c(-c4c(Cl)c(C)cc5[nH]ncc45)c3C)C2)C1`
Result block: 4.2

Query block: Output measured logD for this item: `C=CC(=O)N1CC2(CC(n3nc(-c4ccc5c(cnn5C)c4)c(-c4c(Cl)c(C)cc5[nH]ncc45)c3C)C2)C1`
Result block: 4.6

Query block: Output measured logD for this item: `C=CC(=O)N1CC2(CC(n3nc(-c4ccc5[nH]ncc5c4)c(-c4c(Cl)c(C)cc5[nH]ncc45)c3C)C2)C1`
Result block: 4.6

Query block: Output measured logD for this item: `C=CC(=O)N1CC2(CC(n3nc(-c4ccc5nn(CCN6CCOCC6)cc5c4)c(-c4c(Cl)c(C)cc5[nH]ncc45)c3C)C2)C1`
Result block: 4.2

Query block: Output measured logD for this item: `C=CC(=O)N1CC2(CC(n3nc(-c4ccc5nnccc5c4)c(-c4c(Cl)c(C)cc5[nH]ncc45)c3C)C2)C1`
Result block: 4.1

Query block: Output measured logD for this item: `C=CC(=O)N1CC2(CC(n3nc(-c4ccc5c(cnn5CCN(C)C)c4)c(-c4c(Cl)c(C)cc5[nH]ncc45)c3C)C2)C1`
Result block: 3.7

Query block: Output measured logD for this item: `C=CC(=O)N1CC2(CC(n3nc(-c4ccc5c(c4)ncn5C)c(-c4c(Cl)c(C)cc5[nH]ncc45)c3C)C2)C1`
Result block: 3.9

* * *

# target: Cytochrome P450 2C9 (Homo sapiens, UniProt P11712)
measure-name: IC50
Could you kindly put the unit after your number?

Query block: Provide the reported IC50 (system: Cytochrome P450 2C9 (Homo sapiens, UniProt P11712)) for `C=CC(=O)N1CC2(CC(n3nc(-c4ccc5c(cnn5C)c4)c(-c4c(Cl)c(C)cc5[nH]ncc45)c3C)C2)C1`
Result block: 3.74 µM

* * *

# experiment-notes: Solubility of compound in FeSSIF
# Type: ADME
measure-name: solubility
Could you kindly put the unit after your number?

Query block: Output measured solubility for this item: `C=CC(=O)N1CC2(CC(n3nc(-c4ccc5c(cnn5C)c4)c(-c4c(Cl)c(C)cc5[nH]ncc45)c3C)C2)C1`
Result block: 250 µg/mL

* * *

# target: Cytochrome P450 2D6 (Homo sapiens)
pIC50: −log10 of the molar value.
measure-name: pIC50

Query block: Provide the reported pIC50 (system: Cytochrome P450 2D6 (Homo sapiens)) for `C=CC(=O)N1CC2(CC(n3nc(-c4ccc5c(cnn5C)c4)c(-c4c(Cl)c(C)cc5[nH]ncc45)c3C)C2)C1`
Result block: < 4.70

* * *

# experiment-notes: Apparent permeability across apical to basolateral side in MDCK-MDR1 cells at 10 uM after 2 hrs by LC-MS/MS analysis
# Format: ADME, cell-based, Canis lupus familiaris
# test-settings: dog
measure-name: Papp A→B at 2 h, 10 µM

# count of solved cases: 3
C=CC(=O)N1CC2(CC(n3nc(-c4ccc5nn(CCOC)cc5c4)c(-c4c(Cl)c(C)cc5[nH]ncc45)c3C)C2)C1 : 5.4 ×10⁻⁶ cm/s
C=CC(=O)N1CC2(CC(n3nc(-c4ccc5[nH]ncc5c4)c(-c4c(Cl)c(C)cc5[nH]ncc45)c3C)C2)C1 : 0.6 ×10⁻⁶ cm/s
C=CC(=O)N1CC2(CC(n3nc(-c4ccc5c(c4)ncn5C)c(-c4c(Cl)c(C)cc5[nH]ncc45)c3C)C2)C1 : 3.8 ×10⁻⁶ cm/s

Query block: Output measured Papp A→B at 2 h, 10 µM for this item: `C=CC(=O)N1CC2(CC(n3nc(-c4ccc5c(cnn5C)c4)c(-c4c(Cl)c(C)cc5[nH]ncc45)c3C)C2)C1`
Result block: 5 ×10⁻⁶ cm/s

* * *

# Test system: GTPase KRas (Homo sapiens), P01116 [G12C]
# experiment-notes: Displacement of [acrylamide-2,3-3H2]-N-(3-fluoro-4-(2-methyl-3-(5-methyl-1H- indazole-4-yl)-1H-pyrrolo[ 2,3-b]pyridin-1-yl)-phenyl from KRAS G12C mutant (unknown origin) assessed as ratio of Kinact/Ki by competitive scintillation proximity assay
# Ratio values compiled below

C=CC(=O)N1CC2(CC(n3nc(-c4ccc5c(c4)ncn5C)c(-c4c(Cl)c(C)cc5[nH]ncc45)c3C)C2)C1 : 24 mM⁻¹ s⁻¹

Query block: Output measured Ratio for this item: `C=CC(=O)Nc1ccc(-n2nc(C(C)C)c(-c3c(C)ccc4[nH]ncc34)c2C)c(F)c1`
Result block: 6 mM⁻¹ s⁻¹

Query block: Output measured Ratio for this item: `C=CC(=O)N1CC2(CC(n3nc(-c4ccc5nnccc5c4)c(-c4c(Cl)c(C)cc5[nH]ncc45)c3C)C2)C1`
Result block: 25 mM⁻¹ s⁻¹

Query block: Output measured Ratio for this item: `C=CC(=O)N1CC2(CC(n3nc(-c4ccc5c(cnn5CCOC)c4)c(-c4c(Cl)c(C)cc5[nH]ncc45)c3C)C2)C1`
Result block: 190 mM⁻¹ s⁻¹

* * *

# System: GTPase KRas (Homo sapiens), P01116 [G12C]
# experiment-notes: Displacement of [acrylamide-2,3-3H2]-N-(3-fluoro-4-(2-methyl-3-(5-methyl-1H- indazole-4-yl)-1H-pyrrolo[ 2,3-b]pyridin-1-yl)-phenyl from KRAS G12C mutant (unknown origin) assessed as ratio of Kinact/Ki by competitive scintillation proximity assay
measure-name: log10(Ratio) (log10 of the value in mM⁻¹ s⁻¹)
For clarity, the numbers are log10 values of Ratio expressed in mM⁻¹ s⁻¹.

# count of solved cases: 6
C=CC(=O)N1CC2(CC(n3nc(-c4ccccc4)c(-c4c(Cl)c(C)cc5[nH]ncc45)c3C)C2)C1 : 1.78
C=CC(=O)Nc1ccc(-n2nc(C(C)C)c(-c3c(C)ccc4[nH]ncc34)c2C)c(C)c1 : 0.23
C=CC(=O)N1CC2(CC(n3nc(C(C)C)c(-c4c(C)ccc5[nH]ncc45)c3C)C2)C1 : -0.40
C=CC(=O)N1CC2(CC(n3nc(C4CCCCC4)c(-c4c(Cl)ccc5[nH]ncc45)c3C)C2)C1 : -0.05
C=CC(=O)Nc1ccc(-n2nc(C(C)C)c(-c3c(C)ccc4[nH]ncc34)c2C)cc1 : -0.22
C=CC(=O)N1CC2(CC(n3nc(-c4ccc5nn(CCN6CCOCC6)cc5c4)c(-c4c(Cl)c(C)cc5[nH]ncc45)c3C)C2)C1 : 2.28

Query block: Output measured log10(Ratio) for this item: `C=CC(=O)N1CC2(CC(n3nc(-c4ccc5cn[nH]c5c4)c(-c4c(Cl)c(C)cc5[nH]ncc45)c3C)C2)C1`
Result block: 1.28

Query block: Output measured log10(Ratio) for this item: `C=CC(=O)N1CC2(CC(n3nc(-c4ccc5c(cnn5CCN(C)C)c4)c(-c4c(Cl)c(C)cc5[nH]ncc45)c3C)C2)C1`
Result block: 2.18

* * *

# Tested on: GTPase KRas (Homo sapiens), P01116 [G12C]
# experiment-notes: Displacement of [acrylamide-2,3-3H2]-N-(3-fluoro-4-(2-methyl-3-(5-methyl-1H- indazole-4-yl)-1H-pyrrolo[ 2,3-b]pyridin-1-yl)-phenyl from KRAS G12C mutant (unknown origin) assessed as ratio of Kinact/Ki by competitive scintillation proximity assay
# Ratio values compiled below
Quick reminder: number only, in mM⁻¹ s⁻¹, skip the unit.

C=CC(=O)N1CC2(CC(n3nc(-c4cccnc4)c(-c4c(Cl)ccc5[nH]ncc45)c3C)C2)C1 : 1.3
C=CC(=O)Nc1ccc(-n2nc(C)c(-c3c(C)ccc4[nH]ncc34)c2C)cc1 : 0.1

API: the following record is the query input.
Query block: Output measured Ratio for this item: `C=CC(=O)N1CC2(CC(n3nc(-c4cccnc4)c(-c4c(Cl)c(C)cc5[nH]ncc45)c3CC#N)C2)C1`
Result block: 0.2
